target: DR1 (Homo sapiens, UniProt P21728); construct: endogenous in cells; host or cells: IPF patient derived fibroblasts; assay: DR1 agonism EC50 (Example B-1, Table 4); assay type: cell-based; details: read-out: DR1 EC50
Sequence (P21728 whole entry): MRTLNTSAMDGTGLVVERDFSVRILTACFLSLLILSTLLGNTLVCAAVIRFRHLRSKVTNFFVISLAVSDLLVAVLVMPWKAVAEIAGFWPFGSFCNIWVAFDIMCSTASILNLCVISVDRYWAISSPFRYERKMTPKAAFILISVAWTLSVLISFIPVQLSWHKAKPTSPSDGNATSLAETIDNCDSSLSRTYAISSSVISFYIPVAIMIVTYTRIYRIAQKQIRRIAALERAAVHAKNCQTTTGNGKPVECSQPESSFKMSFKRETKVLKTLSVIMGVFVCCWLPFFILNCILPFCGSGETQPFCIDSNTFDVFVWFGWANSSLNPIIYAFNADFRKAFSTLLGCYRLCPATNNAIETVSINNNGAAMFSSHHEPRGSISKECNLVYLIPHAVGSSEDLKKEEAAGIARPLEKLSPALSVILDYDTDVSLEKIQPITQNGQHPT
pEC50: −log10 of the molar value.

COMPOUND	pEC50
COc1c(O)cc(C2CNCc3sccc32)cc1Cl (centres unmarked)	4.70 to 6.00
CCCc1csc2c1C(c1ccc(OC)c(OC)c1)CNC2 (centres unmarked)	4.70 to 6.00
Oc1ccc([C@H]2CNCc3sccc32)cc1O	> 6.00
CCCc1csc2c1C(c1ccc(O)c(O)c1)CNC2 (centres unmarked)	4.70 to 6.00
CN1Cc2sccc2C(c2ccc(O)c(O)c2)C1 (centres unmarked)	4.70 to 6.00
COc1ccc(C2CNCc3sccc32)cc1OC (centres unmarked)	4.70 to 6.00
COc1cc(C2CNCc3sccc32)cc(Cl)c1OC (centres unmarked)	4.70 to 6.00
CCCc1csc2c1[C@@H](c1ccc(O)c(O)c1)CNC2	4.70 to 6.00
Oc1cc(C2CNCc3sccc32)cc(Cl)c1O (centres unmarked)	> 6.00
CCCc1csc2c1[C@H](c1ccc(O)c(O)c1)CNC2	4.70 to 6.00
Oc1ccc([C@@H]2CNCc3sccc32)cc1O	> 6.00

---

target: DR1 (Homo sapiens, UniProt P21728); construct: endogenous in cells; host or cells: IPF patient derived fibroblasts; assay: DR1 agonism EC50 (Example B-1, Table 4); format: cell-based
pEC50: −log10 of the molar value.

COMPOUND STRING	pEC50
Oc1ccc2c(c1)[C@@H]1c3cc(O)c(O)cc3CC[C@H]1NC2	> 6.00
Cc1cc2c(cc1O)CN[C@H]1CCc3cc(O)c(O)cc3[C@H]21	> 6.00

meta.source: patent US20220267277A1
